Measured values drawn from ChEMBL document CHEMBL3739261 for this set.

Below is a list of entries, each paired with its recorded half-life value.
- measurementNotes: Half life in Sprague-Dawley rat blood at 10 mg/kg, po by HPLC analysis
- Type: ADME, organism-based
measuredProperty: half-life (h)

1. O=C(NC[C@H]1CN(c2ccc(-n3cc(-c4ccccn4)cn3)c(F)c2)C(=O)O1)C(F)F: 8.87
2. CC(=O)NC[C@H]1CN(c2ccc(-n3cc(-c4ccccn4)cn3)c(F)c2)C(=O)O1: 13.1

====

Below is a list of entries, each paired with its recorded Cmax value.
- measurementNotes: Cmax in Sprague-Dawley rat blood at 10 mg/kg, po by HPLC analysis
- Format: ADME, organism-based
- Design: dose 10 mg/kg, route oral
measuredProperty: Cmax (ng/mL)

1. CC(=O)NC[C@H]1CN(c2ccc(-n3cc(-c4ccccn4)cn3)c(F)c2)C(=O)O1: 5770
2. O=C(NC[C@H]1CN(c2ccc(-n3cc(-c4ccccn4)cn3)c(F)c2)C(=O)O1)C(F)F: 4360

====

- measurementNotes: Octanol/water partition coefficient, log P of the compound by HPLC assay
- Assay type: physicochemical
Please mark y if the recorded logP is equal to or greater than 2, and n if it falls below.

1. CN(CCC#N)C[C@H]1CN(c2ccc(-n3cc(-c4ccccn4)cn3)c(F)c2)C(=O)O1: n
2. O=CNC[C@H]1CN(c2ccc(-n3cc(-c4ccccn4)cn3)c(F)c2)C(=O)O1: n
3. CN(CCO)C[C@H]1CN(c2ccc(-n3cc(-c4ccccn4)cn3)c(F)c2)C(=O)O1: n
4. CNC(=O)[C@H]1CN(c2ccc(-n3cc(-c4ccccn4)cn3)c(F)c2)C(=O)O1: n
5. O=C1O[C@@H](CO)CN1c1ccc(-n2cc(-c3ccccn3)cn2)c(F)c1: n
6. CCC(=O)NC[C@H]1CN(c2ccc(-n3cc(-c4ccccn4)cn3)c(F)c2)C(=O)O1: y
7. CN1CCN(C[C@H]2CN(c3ccc(-n4cc(-c5ccccn5)cn4)c(F)c3)C(=O)O2)CC1: y
8. COC(=O)CC1CCN(C[C@H]2CN(c3ccc(-n4cc(-c5ccccn5)cn4)c(F)c3)C(=O)O2)CC1: n
9. O=C(OC[C@H]1CN(c2ccc(-n3cc(-c4ccccn4)cn3)c(F)c2)C(=O)O1)c1ccccc1: y
10. CC(=O)OC[C@H]1CN(c2ccc(-n3cc(-c4ccccn4)cn3)c(F)c2)C(=O)O1: y
11. O=C1CNC(=O)N1C[C@H]1CN(c2ccc(-n3cc(-c4ccccn4)cn3)c(F)c2)C(=O)O1: n
12. CC(=O)NC[C@H]1CN(c2ccc(-n3cc(-c4ccccn4)cn3)c(F)c2)C(=O)O1: n
13. COC[C@H]1CN(c2ccc(-n3cc(-c4ccccn4)cn3)c(F)c2)C(=O)O1: y
14. O=C1CCC(=O)N1C[C@H]1CN(c2ccc(-n3cc(-c4ccccn4)cn3)c(F)c2)C(=O)O1: n
15. CN(C)S(=O)(=O)NC[C@H]1CN(c2ccc(-n3cc(-c4ccccn4)cn3)c(F)c2)C(=O)O1: n
16. O=C1O[C@@H](CN2CCN(CCO)CC2)CN1c1ccc(-n2cc(-c3ccccn3)cn2)c(F)c1: n
17. O=C(CF)NC[C@H]1CN(c2ccc(-n3cc(-c4ccccn4)cn3)c(F)c2)C(=O)O1: n
18. O=C1CSC(=O)N1C[C@H]1CN(c2ccc(-n3cc(-c4ccccn4)cn3)c(F)c2)C(=O)O1: y
19. O=C1OC(Cn2ccnc2)CN1c1ccc(-n2cc(-c3ccccn3)cn2)c(F)c1 (single isomer, unassigned): n
20. NC(=O)[C@H]1CN(c2ccc(-n3cc(-c4ccccn4)cn3)c(F)c2)C(=O)O1: n
21. O=C1O[C@@H](CN2CCCCC2)CN1c1ccc(-n2cc(-c3ccccn3)cn2)c(F)c1: y
22. O=C1O[C@@H](CN2CCC(O)CC2)CN1c1ccc(-n2cc(-c3ccccn3)cn2)c(F)c1: n
23. CCN1CCN(C[C@H]2CN(c3ccc(-n4cc(-c5ccccn5)cn4)c(F)c3)C(=O)O2)CC1: y
24. O=C1O[C@@H](CN2CCC(c3ccc(F)cc3)CC2)CN1c1ccc(-n2cc(-c3ccccn3)cn2)c(F)c1: y
25. CS(=O)(=O)NC[C@H]1CN(c2ccc(-n3cc(-c4ccccn4)cn3)c(F)c2)C(=O)O1: n
26. O=C(NC[C@H]1CN(c2ccc(-n3cc(-c4ccccn4)cn3)c(F)c2)C(=O)O1)C(F)F: n
27. CCNC(=O)NC[C@H]1CN(c2ccc(-n3cc(-c4ccccn4)cn3)c(F)c2)C(=O)O1: y
28. O=C1O[C@@H](CSc2cccs2)CN1c1ccc(-n2cc(-c3ccccn3)cn2)c(F)c1: y

====

- measurementNotes: Clearance in Sprague-Dawley rat blood at 10 mg/kg, iv by HPLC analysis
- Assay type: ADME, organism-based
measuredProperty: clearance (mL/min/kg)

1. O=C(NC[C@H]1CN(c2ccc(-n3cc(-c4ccccn4)cn3)c(F)c2)C(=O)O1)C(F)F: 3
2. CC(=O)NC[C@H]1CN(c2ccc(-n3cc(-c4ccccn4)cn3)c(F)c2)C(=O)O1: 0.833

====

- Test system: Staphylococcus aureus
- measurementNotes: Antibacterial activity against methicillin-susceptible Staphylococcus aureus ATCC 25923 incubated for 18 hrs by broth microdilution method
- Assay type: functional
- conditionSet: ATCC 25923, 18 h
measuredProperty: MIC

1. O=C(OC[C@H]1CN(c2ccc(-n3cc(-c4ccccn4)cn3)c(F)c2)C(=O)O1)c1ccccc1: > 32 µg/mL
2. O=C1O[C@@H](CSc2cccs2)CN1c1ccc(-n2cc(-c3ccccn3)cn2)c(F)c1: > 32 µg/mL
3. COC(=O)NC[C@H]1CN(c2ccc(-n3cc(-c4ccccn4)cn3)c(F)c2)C(=O)O1: 4 µg/mL
4. CC(=O)OC[C@H]1CN(c2ccc(-n3cc(-c4ccccn4)cn3)c(F)c2)C(=O)O1: > 32 µg/mL
5. O=C1O[C@@H](Cn2ccnn2)CN1c1ccc(-n2cc(-c3ccccn3)cn2)c(F)c1: 4 µg/mL

====

- measurementNotes: Tmax in Sprague-Dawley rat blood at 10 mg/kg, iv by HPLC analysis
- Type: ADME, organism-based
measuredProperty: Tmax (min)

1) CC(=O)NC[C@H]1CN(c2ccc(-n3cc(-c4ccccn4)cn3)c(F)c2)C(=O)O1: 6.6
2) O=C(NC[C@H]1CN(c2ccc(-n3cc(-c4ccccn4)cn3)c(F)c2)C(=O)O1)C(F)F: 6.6

====

- Test system: Staphylococcus aureus
- measurementNotes: Antibacterial activity against methicillin-susceptible Staphylococcus aureus ATCC 25923 incubated for 18 hrs by broth microdilution method
- Assay type: functional
- conditionSet: ATCC 25923, 18 h
measuredProperty: MIC

1. O=C1CSC(=O)N1C[C@H]1CN(c2ccc(-n3cc(-c4ccccn4)cn3)c(F)c2)C(=O)O1: > 32 µg/mL
2. O=C1CNC(=O)N1C[C@H]1CN(c2ccc(-n3cc(-c4ccccn4)cn3)c(F)c2)C(=O)O1: > 32 µg/mL
3. CN1CCN(C[C@H]2CN(c3ccc(-n4cc(-c5ccccn5)cn4)c(F)c3)C(=O)O2)CC1: > 32 µg/mL
4. CN(CCC#N)C[C@H]1CN(c2ccc(-n3cc(-c4ccccn4)cn3)c(F)c2)C(=O)O1: > 32 µg/mL
5. COC[C@H]1CN(c2ccc(-n3cc(-c4ccccn4)cn3)c(F)c2)C(=O)O1: > 32 µg/mL
6. O=C1O[C@@H](CN2CCN(CCO)CC2)CN1c1ccc(-n2cc(-c3ccccn3)cn2)c(F)c1: > 32 µg/mL
7. CNC(=O)[C@H]1CN(c2ccc(-n3cc(-c4ccccn4)cn3)c(F)c2)C(=O)O1: 8 µg/mL
8. O=C(CF)NC[C@H]1CN(c2ccc(-n3cc(-c4ccccn4)cn3)c(F)c2)C(=O)O1: 4 µg/mL
9. NC(=O)[C@H]1CN(c2ccc(-n3cc(-c4ccccn4)cn3)c(F)c2)C(=O)O1: 16 µg/mL

====

- measurementNotes: AUC (0 to infinity) in Sprague-Dawley rat blood at 10 mg/kg, iv by HPLC analysis
- Assay type: ADME, organism-based
- Set-up: dose 10 mg/kg, route intravenous, time infinity
measuredProperty: AUC(0-inf)

1. CC(=O)NC[C@H]1CN(c2ccc(-n3cc(-c4ccccn4)cn3)c(F)c2)C(=O)O1: 205 µg·h/mL
2. O=C(NC[C@H]1CN(c2ccc(-n3cc(-c4ccccn4)cn3)c(F)c2)C(=O)O1)C(F)F: 57.6 µg·h/mL

====

- measurementNotes: Clearance in Sprague-Dawley rat blood at 10 mg/kg, po by HPLC analysis
- Format: ADME, organism-based
measuredProperty: CL/F (mL/min/kg)

1. O=C(NC[C@H]1CN(c2ccc(-n3cc(-c4ccccn4)cn3)c(F)c2)C(=O)O1)C(F)F: 3.33
2. CC(=O)NC[C@H]1CN(c2ccc(-n3cc(-c4ccccn4)cn3)c(F)c2)C(=O)O1: 1.5
